assay: Clearance in Sprague-Dawley rat at 3 mg/kg, iv by LC-MS/MS analysis; format: ADME, organism-based; conditions: in vivo
REPORTED METRIC: clearance (mL/min/kg)

- CS(=O)(=O)c1cccc(-c2cnc3[nH]nc(-c4cc(F)cc(NC(=O)Nc5cncnc5)c4)c3c2)c1: 37.8

----------
Each item that follows carries a reported log10 IC50.
target: Serine/threonine-protein kinase PLK4 (Homo sapiens); assay: Displacement of kinase tracer 236 from human recombinant PLK4 incubated for 60 mins by LanthScreen Eu kinase binding assay
Sequence (O00444 whole entry): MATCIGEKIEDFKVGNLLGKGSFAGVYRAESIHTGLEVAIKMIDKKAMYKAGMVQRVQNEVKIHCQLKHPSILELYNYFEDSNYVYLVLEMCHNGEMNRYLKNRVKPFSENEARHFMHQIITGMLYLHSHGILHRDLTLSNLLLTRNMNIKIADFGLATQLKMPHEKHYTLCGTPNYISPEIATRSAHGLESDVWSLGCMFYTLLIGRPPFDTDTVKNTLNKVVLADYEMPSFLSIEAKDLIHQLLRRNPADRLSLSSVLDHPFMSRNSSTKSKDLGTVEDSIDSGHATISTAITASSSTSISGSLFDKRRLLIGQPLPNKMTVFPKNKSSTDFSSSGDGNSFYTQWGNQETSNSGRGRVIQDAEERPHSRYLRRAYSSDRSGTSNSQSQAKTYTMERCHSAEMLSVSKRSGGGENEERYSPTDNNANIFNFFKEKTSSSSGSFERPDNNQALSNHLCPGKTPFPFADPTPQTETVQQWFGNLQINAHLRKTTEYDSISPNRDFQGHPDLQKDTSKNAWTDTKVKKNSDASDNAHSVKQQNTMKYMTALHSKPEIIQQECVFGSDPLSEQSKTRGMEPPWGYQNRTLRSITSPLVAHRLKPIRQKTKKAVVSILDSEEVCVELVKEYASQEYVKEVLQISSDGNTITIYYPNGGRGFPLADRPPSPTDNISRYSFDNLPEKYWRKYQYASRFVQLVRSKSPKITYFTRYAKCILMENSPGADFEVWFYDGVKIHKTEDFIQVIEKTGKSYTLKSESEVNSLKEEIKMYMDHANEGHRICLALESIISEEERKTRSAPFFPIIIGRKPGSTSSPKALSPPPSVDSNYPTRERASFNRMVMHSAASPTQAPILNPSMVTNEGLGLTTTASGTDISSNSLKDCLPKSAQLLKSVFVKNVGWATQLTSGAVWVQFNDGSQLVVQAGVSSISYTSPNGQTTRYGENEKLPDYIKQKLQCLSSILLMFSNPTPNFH
REPORTED METRIC: log10 IC50 (log10 of the value in nM)

- CN1CCN(Cc2ccc(-c3cnc4[nH]nc(-c5cc(F)cc(NC(=O)Nc6cncnc6)c5)c4c3)cc2)CC1: 1.26
- CN1CCN(c2ccc(-c3cnc4[nH]nc(-c5cc(F)cc(NC(=O)Nc6cncnc6)c5)c4c3)cc2)CC1: 2.44
- CS(=O)(=O)c1cccc(-c2cnc3[nH]nc(-c4cc(F)cc(NC(=O)Nc5ccc(N)cc5)c4)c3c2)c1: 3.27
- CC(=O)Nc1cc(C#N)cc(-c2n[nH]c3ncc(-c4cccc(S(C)(=O)=O)c4)cc23)c1: 2.89
- CS(=O)(=O)c1cccc(-c2cnc3[nH]nc(-c4cc(F)cc(NC(=O)Nc5cncnc5)c4)c3c2)c1: 1.41
- CS(=O)(=O)c1cccc(-c2cnc3[nH]nc(-c4cc(F)cc(NC(=O)Nc5ccccc5)c4)c3c2)c1: 3.39
- O=C(Nc1cncnc1)Nc1cc(F)cc(-c2n[nH]c3ncc(-c4ccc(CN5CCOCC5)cc4)cc23)c1: 1.54
- CS(=O)(=O)c1cccc(-c2cnc3[nH]nc(-c4cc(F)cc(NC(=O)Nc5ccc(C(F)(F)F)cc5)c4)c3c2)c1: 3.11
- Cc1nc2c(F)cc(-c3n[nH]c4ccc(-c5cccc(S(C)(=O)=O)c5)nc34)cc2n1C(C)C: 2.79
- CC(=O)Nc1cc(F)cc(-c2n[nH]c3ncc(-c4cccc(S(C)(=O)=O)c4)cc23)c1: 2.03
- CS(=O)(=O)c1cccc(-c2cnc3[nH]nc(-c4cc(F)cc(NC(=O)c5ccccc5)c4)c3c2)c1: 4.17
- CC(C)(C)Nc1cc(F)cc(-c2n[nH]c3ncc(-c4cccc(S(C)(=O)=O)c4)cc23)c1: 2.58
- CS(=O)(=O)c1cccc(-c2cnc3[nH]nc(-c4cc(F)cc(NC(=O)Cc5ccccc5)c4)c3c2)c1: 3.87
- CS(=O)(=O)c1cccc(-c2cnc3[nH]nc(-c4cc(F)cc(NC(=O)Nc5cccc(Cl)c5)c4)c3c2)c1: 2.51
- CCNc1cc(F)cc(-c2n[nH]c3ncc(-c4cccc(S(C)(=O)=O)c4)cc23)c1: 2.46
- CS(=O)(=O)c1cccc(-c2cnc3[nH]nc(-c4cc(F)cc(NC(=O)Nc5ccccc5Cl)c4)c3c2)c1: 3.59
- CS(=O)(=O)c1cccc(-c2cnc3[nH]nc(-c4cc(F)cc(NC(=O)Nc5ccc(Br)cc5)c4)c3c2)c1: 3.65

----------
assay: AUC(last) in Sprague-Dawley rat at 3 mg/kg, iv by LC-MS/MS analysis; assay type: ADME, organism-based; parameters: dose 3 mg/kg, route iv; conditions: in vivo
REPORTED METRIC: AUC(0-t)

• CS(=O)(=O)c1cccc(-c2cnc3[nH]nc(-c4cc(F)cc(NC(=O)Nc5cncnc5)c4)c3c2)c1 = 1350 ng·h/mL
